Ref: patent US20250242064A1

The molecules listed here are annotated with their tissue to tissue ratio at 24 h.
- Assay Summary: in vivo
- Parameters: species or system mice
- Experimental Conditions: male, NOD.Cg-Rag1tm1Mom Il2rgtm1Wjl/SzJ (NRG), mouse, iv, total radioactivity, Ratio Tumor-to-Blood
Where a SMILES comes first, the peptide text is derived from it. Bridges are numbered along the chain shown (N, C = ends). [ ]: non-standard residue; d: D form. The star is where a group is joined. X3 = O=C(O)CN1CCN(CC(=O)O)CCN(CC(=O)N[C@@H](CS(=O)(=O)O)C(=O)N[C@@H](CCCCNC(=O)CCCc2ccc(Br)cc2)C(=O)*)CCN(CC(=O)O)CC1; X1 = O=C(O)CN1CCN(CC(=O)O)CCN(CC(=O)N[C@@H](CS(=O)(=O)O)C(=O)N[C@@H](CCCCNC(=O)CCCc2ccc(I)cc2)C(=O)*)CCN(CC(=O)O)CC1; 2Nal = N[C@@H](Cc1ccc2ccccc2c1)C(=O)O; Lys(iPr) = CC(C)NCCCC[C@H](N)C(=O)O
Lab note: jot down the number only; don't add units.

CC(C)NCCCC[C@H](NC(=O)[C@H]1CCC(=O)N[C@@H](CCCCNC(=O)[C@H](CCCCNC(=O)CCCc2ccc(Br)cc2)NC(=O)[C@H](CS(=O)(=O)O)NC(=O)CN2CCN(CC(=O)O)CCN(CC(=O)O)CCN(CC(=O)O)CC2)C(=O)N[C@@H](Cc2ccc(O)cc2)C(=O)N[C@@H](CCCCNC(C)C)C(=O)N[C@H](CCCNC(=N)N)C(=O)N[C@@H](Cc2ccc3ccccc3c2)C(=O)N[C@H](C)C(=O)N1)C(N)=O [[^177Lu]Lu-BL34L20, metal not drawn] (K(X3)Y[Lys(iPr)][dR][2Nal][dA][dE][Lys(iPr)]-NH2; lactam N-7): 9.65

Moving on to another molecule below.
Recorded tissue to tissue ratio at 24 h for CC(C)NCCCC[C@H](NC(=O)[C@H]1CCC(=O)N[C@@H](CCCCNC(=O)[C@H](CCCCNC(=O)CCCc2ccc(I)cc2)NC(=O)[C@H](CS(=O)(=O)O)NC(=O)CN2CCN(CC(=O)O)CCN(CC(=O)O)CCN(CC(=O)O)CC2)C(=O)N[C@@H](Cc2ccc(O)cc2)C(=O)N[C@@H](CCCCNC(C)C)C(=O)N[C@H](CCCNC(=N)N)C(=O)N[C@@H](Cc2ccc3ccccc3c2)C(=O)N[C@H](C)C(=O)N1)C(N)=O [[^177Lu]Lu-BL34L11, metal not drawn] (K(X1)Y[Lys(iPr)][dR][2Nal][dA][dE][Lys(iPr)]-NH2; lactam N-7) , please?
3.42
